Source listed as ChEMBL document CHEMBL1129210.

- EXPERIMENTAL_SYSTEM: Epidermal growth factor receptor (Homo sapiens, UniProt P00533)
- Sequence (P00533 whole entry): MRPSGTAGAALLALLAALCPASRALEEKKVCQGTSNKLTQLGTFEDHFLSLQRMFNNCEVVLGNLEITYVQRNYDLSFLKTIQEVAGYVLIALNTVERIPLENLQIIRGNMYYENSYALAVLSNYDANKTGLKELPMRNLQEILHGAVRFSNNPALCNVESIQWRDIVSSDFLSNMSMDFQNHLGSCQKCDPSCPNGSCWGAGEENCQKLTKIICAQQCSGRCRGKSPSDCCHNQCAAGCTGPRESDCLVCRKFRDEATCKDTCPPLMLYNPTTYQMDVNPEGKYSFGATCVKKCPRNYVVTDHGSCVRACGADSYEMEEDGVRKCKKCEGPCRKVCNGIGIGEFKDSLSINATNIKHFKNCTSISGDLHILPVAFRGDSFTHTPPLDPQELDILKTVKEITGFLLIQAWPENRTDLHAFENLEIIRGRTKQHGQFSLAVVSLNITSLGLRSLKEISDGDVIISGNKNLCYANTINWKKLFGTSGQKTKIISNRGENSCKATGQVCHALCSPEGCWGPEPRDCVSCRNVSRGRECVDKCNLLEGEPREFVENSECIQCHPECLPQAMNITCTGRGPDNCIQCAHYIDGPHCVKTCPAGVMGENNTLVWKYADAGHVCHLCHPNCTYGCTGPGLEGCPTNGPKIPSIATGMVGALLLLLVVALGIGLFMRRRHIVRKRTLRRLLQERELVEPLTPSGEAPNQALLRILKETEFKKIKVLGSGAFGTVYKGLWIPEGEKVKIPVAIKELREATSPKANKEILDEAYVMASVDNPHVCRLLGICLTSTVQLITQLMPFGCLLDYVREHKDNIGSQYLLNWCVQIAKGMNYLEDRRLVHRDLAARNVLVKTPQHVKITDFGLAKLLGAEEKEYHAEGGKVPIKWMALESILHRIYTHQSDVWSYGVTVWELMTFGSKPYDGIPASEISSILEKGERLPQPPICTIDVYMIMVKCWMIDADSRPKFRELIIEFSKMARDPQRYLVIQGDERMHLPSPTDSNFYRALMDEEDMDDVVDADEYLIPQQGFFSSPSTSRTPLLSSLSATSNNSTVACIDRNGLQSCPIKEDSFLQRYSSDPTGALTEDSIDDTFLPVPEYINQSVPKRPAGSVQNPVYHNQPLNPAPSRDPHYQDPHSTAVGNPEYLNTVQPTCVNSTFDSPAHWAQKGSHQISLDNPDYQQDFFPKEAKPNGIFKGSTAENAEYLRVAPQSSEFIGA
MEASURED_PROPERTY: IC50 (µM)

(1) COc1cc2ncnc(Nc3cnc4ccccc4n3)c2cc1OC
(2) COc1cc2ncnc(NNc3ccc(F)c(Cl)c3)c2cc1OC
(3) COc1cc2ncnc(NCc3cccc(C)c3)c2cc1OC
Ask | Order the 3 compounds from highest to lowest IC50. Order the labels as requested and give them as your answer.
Reply | 1, 2, 3
